# testDescription: chemical genetic growth profiling, strain panel (AID 1159580);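 note: tested at 20 µM; growth read once vehicle control cultures reached saturation at 30 °C; 1 = growth at the plate median or of vehicle wells; lower values mean less growth of the strain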
# conditionInfo: S. cerevisiae deletion strains, growth OD, locus YGL240W, strain doc1, stronger effect = lower value
Screen size: about 5,500 compounds; about 2,000 (36%) were called active. Not shown: some 18% with an inconclusive outcome. The list shows a part of the results.
metricName: normalized growth
Just the number, please.

*Q* Which measured normalized growth value corresponds to CCOC(=O)c1ncn2c1CN(C)C(=O)c1cc(F)ccc1-2 ?
*A* 1.04

*Q* // query: C[N+](C)(C)CC(=O)[O-]
*A* 0.981

*Q* Next up: NCC1CCCCC1CC(=O)O (stereo unspecified)
*A* 1.04

*Q* Could you do the same for CC(=O)CC(=O)CCC(=O)O , please?
*A* 1.04

*Q* Please do the same for CC(C(=O)O)c1ccc2c(c1)[nH]c1ccc(Cl)cc12 (stereo unspecified) as well.
*A* 0.92

*Q* Next record, please: CO[C@H]1C[C@H](O[C@H]2[C@H](C)[C@@H](OC3O[C@H](C)C[C@H](N(C)C)[C@H]3O)[C@@H](C)C[C@]3(CO3)C(=O)[C@H](C)[C@@H](O)[C@@H](C)[C@@H](C)OC(=O)[C@@H]2C)O[C@@H](C)[C@@H]1O (stereo partly specified)
*A* 1.03

*Q* Next molecule up: CC(C)=CCc1c(O)cc2oc(C)cc(=O)c2c1O
*A* 0.968

*Q* CC(C)[N+](C)(CCOC(=O)C1c2ccccc2Oc2ccccc21)C(C)C , same question.
*A* 0.983

*Q* Ok, now C=CC1=C(C(=O)O)N2C(=O)[C@@H](NC(=O)/C(=N/O)c3csc(N)n3)[C@H]2SC1
*A* 1.01

*Q* Same thing, different molecule: CC(=O)O[C@H]1C(=O)[C@@]2(C)C([C@H](OC(=O)c3ccccc3)[C@]3(O)C[C@H](OC(=O)[C@H](O)[C@@H](NC(=O)c4ccccc4)c4ccccc4)C(C)=C1C3(C)C)[C@]1(OC(C)=O)CO[C@@H]1C[C@@H]2O (stereo partly specified)
*A* 0.968

*Q* And what about the molecule CC(=O)[C@H]1CCC2C3C[C@H](C)C4=CC(=O)CC[C@]4(C)C3[C@@H](O)C[C@@]21C (stereo partly specified) ?
*A* 1.02

*Q* Follow-up item: Cc1cccc(Nc2cc(Cl)nc(SCC(=O)O)n2)c1C
*A* 1.03

*Q* Try the molecule CC[C@@H](CO)NCCN[C@@H](CC)CO
*A* 0.995

*Q* Another molecule to look at: O=C(/C=C/C=C/c1ccc2c(c1)OCO2)N1CCCCC1
*A* 0.919

*Q* Repeat with NC(=O)N1c2ccccc2CC(=O)c2ccccc21
*A* 0.948

*Q* What do you have for COc1c2c(c(CC=C(C)C)c3oc(=O)c(-c4ccc(O)cc4)c(O)c13)OC(C)(C)C=C2 ?
*A* 0.903

*Q* Then this molecule: O=c1ccc2cc(O)c(O)cc2o1
*A* 1.05

*Q* Try this molecule next: Cn1cc[nH]c1=S
*A* 0.981

*Q* Please answer likewise for CCCCCC(=O)O[C@]1(C(C)=O)CCC2C3CCC4=CC(=O)CC[C@]4(C)C3CC[C@@]21C (stereo partly specified)
*A* 0.976

*Q* CN1CCc2cc3c(cc2C1O)OCO3 (stereo unspecified) ?
*A* 0.957

*Q* Entry Cc1cc(OC(=O)N2CCCCC2)c(C(C)C)cc1[N+](C)(C)C please
*A* 1.02
